Just for reference, patent US11649460B2 is where these values come from.

# Test system: OVCAR-3 human ovarian adenocarcinoma cell line
# MEASUREMENT_PROTOCOL: SRB cell proliferation (cytotoxicity) assay, OVCAR-3
# CONDITION_CONTEXT: read-out: IC50: Concentration to inhibit 50% of cell growth; OVCAR-3
READOUT: pIC50
Formally, pIC50 is defined as -log10 of the concentration c, with c in mol/L.

// query GET /values?readout=pIC50&item= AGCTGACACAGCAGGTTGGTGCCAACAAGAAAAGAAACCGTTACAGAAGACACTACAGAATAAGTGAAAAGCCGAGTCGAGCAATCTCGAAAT (nucleic acid, chemistry not given here) DNA: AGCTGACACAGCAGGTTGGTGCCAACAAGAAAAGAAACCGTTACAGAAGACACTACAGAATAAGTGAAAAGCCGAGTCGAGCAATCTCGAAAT
// result 5.02

Further cases:
// query GET /values?readout=pIC50&item= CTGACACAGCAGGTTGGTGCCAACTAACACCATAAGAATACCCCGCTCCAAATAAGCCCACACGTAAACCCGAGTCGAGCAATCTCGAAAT (nucleic acid, chemistry not given here, DNA aptamer that recognizes human galectin-1) DNA: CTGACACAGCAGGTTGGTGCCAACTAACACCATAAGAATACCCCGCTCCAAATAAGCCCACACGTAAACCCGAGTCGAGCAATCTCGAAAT
// result 4.85

// query # repeat for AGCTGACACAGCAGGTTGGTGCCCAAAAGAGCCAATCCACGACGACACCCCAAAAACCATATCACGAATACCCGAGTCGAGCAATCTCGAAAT (nucleic acid, chemistry not given here) DNA: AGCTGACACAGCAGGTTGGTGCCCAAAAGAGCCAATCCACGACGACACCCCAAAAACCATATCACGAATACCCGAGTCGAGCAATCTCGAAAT
// result 4.79

// query # repeat for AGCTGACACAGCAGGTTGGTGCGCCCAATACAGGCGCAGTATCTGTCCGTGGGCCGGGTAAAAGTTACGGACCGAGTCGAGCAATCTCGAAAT (nucleic acid, chemistry not given here) DNA: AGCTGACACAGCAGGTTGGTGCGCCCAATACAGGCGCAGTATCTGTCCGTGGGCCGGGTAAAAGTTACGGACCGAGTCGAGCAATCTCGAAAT
// result 4.96
